# Protocol: chemical genetic growth profiling, strain panel (AID 1159580);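 note: tested at 20 µM; growth read once vehicle control cultures reached saturation at 30 °C; 1 = growth at the plate median or of vehicle wells; lower values mean less growth of the strain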
# Stated conditions: S. cerevisiae deletion strains, growth OD, locus YER111C, strain swi4, hits give low values
Hit rate of the full screen: of about 5,500 compounds, about 2,000 (36%) were called active. Roughly 18% stayed inconclusive and do not appear here. This is one part of the list.
Under this convention, true (1) denotes normalized growth strictly below 1 and false (0) denotes normalized growth at or above 1.

See these solved cases before continuing.
INSERT INTO measurements (compound, cat) VALUES
  ('NC(Cc1ccc(F)cc1)C(=O)O (configuration not stated)', 'false (0)'),
  ('CC(CN(C)C)CN1c2ccccc2Sc2ccccc21 (configuration not stated)', 'false (0)');

Lab note: confirm whether the reported normalized growth for this compound is below 1, equality not counting. compound: CCN(CCCc1ccccc1)CCCc1ccccc1
true (1)

* * *

Consider the following compounds; for each one, report its normalized growth.
# Protocol: chemical genetic growth profiling, strain panel (AID 1159580)
# Stated conditions: S. cerevisiae deletion strains, growth OD, locus YAL040C, strain CLN3, hits give low values
Among all 5,500 compounds or so, about 2,000 (36%) were called active. About 18% were inconclusive and are not listed. Some of the results follow.
One number for each entry.

The following compounds have reported results that may help.
INSERT INTO results (compound, observed_value) VALUES
  ('O=C1NC(c2cccc([N+](=O)[O-])c2)=CCN1c1ccccc1O', 0.994),
  ('CNCCCN1c2ccccc2CCc2ccccc21', 1),
  ('CC(CN(C)C)CN1c2ccccc2CCc2ccccc21 (centres undefined)', 1.03),
  ('CC(CN1c2ccccc2Sc2ccccc21)N(C)C (centres undefined)', 0.985),
  ('CS(=N)(=O)CC[C@H](N)C(=O)O (some centres undefined)', 0.993),
  ('CC(N)=O', 0.973);

I'm hoping you can list normalized growth for every compound here, please.
1. OCC1O[C@H](O)C(Cl)C(O)C1O (some centres undefined)
2. C#CCN(C)CCCOc1ccc(Cl)cc1Cl

1. 1.01
2. 1.01

I'm hoping you can list normalized growth for every compound here, please.
1. CCN(CC)C(C)C(=O)N1c2ccccc2Sc2ccccc21 (centres undefined)
2. NS(=O)(=O)c1cc2c(cc1Cl)NC(C1CC3C=CC1C3)NS2(=O)=O (centres undefined)
3. N[C@@H](Cc1ccc(O)c(I)c1)C(=O)O
4. C[C@H](N)CN1CCc2ccc(Br)cc21
5. CC12CC3CC(C)(C1)CC(N)(C3)C2
6. CN(C)CCC(c1ccc(Br)cc1)c1ccccn1 (centres undefined)
7. NC(=O)C(=O)O
8. NCC(CC(=O)O)c1ccc(Cl)cc1 (centres undefined)

1: 1.02; 2: 0.979; 3: 0.991; 4: 0.979; 5: 1.06; 6: 1.11; 7: 1; 8: 1.03

I'm hoping you can list normalized growth for every compound here, please.
1. NC(CCCP(=O)(O)O)C(=O)O (centres undefined)
2. COc1ccc(C(=O)N2CCCC2=O)cc1
3. O=c1ccn([C@@H]2O[C@H](COP(=O)(O)OP(=O)(O)O)[C@@H](O)[C@H]2O)c(=O)[nH]1

[1.01, 1.01, 0.981]

* * *

# Protocol: chemical genetic growth profiling, strain panel (AID 1159580);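 note: tested at 20 µM; growth read once vehicle control cultures reached saturation at 30 °C; 1 = growth at the plate median or of vehicle wells; lower values mean less growth of the strain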
# Stated conditions: S. cerevisiae deletion strains, growth OD, locus YGR135W, strain pre9
The whole screen tested about 5,500 compounds, of which about 2,000 (36%) were called active. Not shown: some 18% with an inconclusive outcome. No stated cut-off is given here; in the data, active means normalized growth mostly below about 0.91 (no sharp cut-off); inconclusive means no clear call, values can overlap the other calls; inactive means mostly above about 0.92. The list shows a part of the results.
Write down one outcome, taken from active, inactive

See these solved cases before continuing.
INSERT INTO assay_data (molecule, cat) VALUES
  ('CC(CCC(=O)O)[C@H]1CCC2C3C[C@H](O)[C@@H]4C[C@H](O)CC[C@]4(C)C3CC[C@@]21C (stereo partly specified)', 'inactive'),
  ('Cc1cc(O)c(C=O)c2c1C(=O)Oc1c(COC(=O)/C=C/C(=O)O)c(O)c(C(=O)O)c(C)c1O2', 'inactive'),
  ('C[C@H](N)[C@H](O)c1cccc(O)c1', 'inactive'),
  ('Cc1cc(O)c(C)c2c1C(=O)Oc1c(C)c(O)c(C(=O)O)c(C)c1O2', 'inactive'),
  ('COC(=O)CCCOc1ccc(Cl)cc1Cl', 'inactive');

What did the test return for CCN(CC)CCOC(=O)C(c1ccccc1)c1ccccc1 ?
inactive

Same again, this time with CC[C@H](CCC(C)[C@H]1CCC2C3CCC4C[C@@H](O)CC[C@]4(C)C3CC[C@@]21C)C(C)C (stereo partly specified)
inactive

Same again, this time with CN(C)CCOC(=O)C(c1ccccc1)C1(O)CCCC1 (stereo unspecified)
inactive

Same again, this time with C[C@@H](N)[C@@H](O)c1ccccc1
inactive

Same again, this time with COc1cc2c(cc1-c1cc3cc4ccoc4cc3oc1=O)OCO2
inactive

Same again, this time with CC(CCC(=O)O)[C@H]1CCC2C3C(C[C@H](O)[C@@]21C)[C@@]1(C)CC[C@@H](O)C[C@H]1C[C@H]3O (stereo partly specified)
inactive

Same again, this time with C[C@@H]1O[C@@H](O[C@H]2C[C@@H](O)[C@]3(CO)C4C(CC[C@]3(O)C2)[C@@]2(O)CC[C@H](C3=CC(=O)OC3)[C@@]2(C)C[C@H]4O)[C@H](O)[C@H](O)[C@H]1O (stereo partly specified)
inactive

Same again, this time with COc1cc(OC)c2c3c1C(=O)c1c(OC)cc(C)c4c(OC)cc(c-3c14)C(C)(C)C2=O
inactive

Same again, this time with COC(=O)c1c(C)cc(OC(=O)c2c(C)c(Cl)c(O)c(C=O)c2O)c(C)c1O
inactive

Same again, this time with CN(C)C(=O)Nc1ccc(Cl)c(Cl)c1
inactive

Same again, this time with Cc1nc2ccccn2c(=O)c1CCN1CCC(C(=O)c2ccc(F)cc2)CC1
inactive

Same again, this time with C[C@H](N)[C@H](O)c1ccccc1
inactive

Same again, this time with COC(=O)c1c(C)cc(OC(=O)c2c(C)cc(O)c(C=O)c2O)c(C)c1O
active

Same again, this time with CCC(=O)Nc1ccc(Cl)c(Cl)c1
inactive

Same again, this time with O=C(O)CCCOc1ccc(Cl)cc1Cl
inactive

Same again, this time with O=C(O)c1ccccc1C(=O)Nc1ccc(S(=O)(=O)Nc2nccs2)cc1
inactive

* * *

# Protocol: chemical genetic growth profiling, strain panel (AID 1159580);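 note: tested at 20 µM; growth read once vehicle control cultures reached saturation at 30 °C; 1 = growth at the plate median or of vehicle wells; lower values mean less growth of the strain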
# Stated conditions: S. cerevisiae deletion strains, growth OD, locus YBR009C, strain hhf1, hits give low values
About 2,000 (36%) of roughly 5,500 compounds were called active. Another 18% or so got no clear call; they are omitted. The list shows a part of the results.
Consider the following compounds; for each one, report its normalized growth.
One number for each entry.

INSERT INTO assay_data (compound, observed_value) VALUES
  ('N#C/C(=C\c1cccc(O)c1)C(=O)O', 1.03);

I'm hoping you can list normalized growth for every compound here, please.
1. COc1c2ccoc2nc2c(OC)c(OCC(O)C(C)(C)O)ccc12 (centres undefined)
2. O=[N+]([O-])c1cccc2c(Br)[nH]nc12
3. O=c1[nH]cnc2[nH]ncc12
4. N[C@H](Cc1ccccc1)C(=O)O
5. CO[C@]12C[C@@H](COC(=O)c3cncc(Br)c3)CN(C)[C@@H]1Cc1cn(C)c3cccc2c13

1.02
1.01
1
0.968
0.991

* * *

Consider the following molecules; for each one, report its normalized growth.
# Protocol: chemical genetic growth profiling, strain panel (AID 1159580);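 note: tested at 20 µM; growth read once vehicle control cultures reached saturation at 30 °C; 1 = growth at the plate median or of vehicle wells; lower values mean less growth of the strain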
# Stated conditions: S. cerevisiae deletion strains, growth OD, locus YOR083W, strain WHI5 (second series), hits give low values
About 2,000 (36%) of roughly 5,500 compounds were called active. Roughly 18% stayed inconclusive and do not appear here. This is one part of the list.

The following molecules have reported results that may help.
INSERT INTO assay_data (smiles_representation, observed_value) VALUES
  ('COc1ccc(CCN(C)CCc2ccc(OC)c(OC)c2)cc1OC', '1.02 (inactive)'),
  ('C[C@]12N[C@H](Cc3ccccc31)c1ccccc12', '0.995 (inactive)');

I'm hoping you can list normalized growth for every molecule here, please.
1. N[C@H](CCCCCP(=O)(O)O)C(=O)O
2. O=[N+]([O-])c1cccc2cn[nH]c12
3. N#Cc1cc2nc(O)c(O)nc2cc1[N+](=O)[O-]

1: 0.964 (inactive); 2: 1 (inactive); 3: 0.994 (inactive)

I'm hoping you can list normalized growth for every molecule here, please.
1. Cc1nc2sccn2c(=O)c1CCN1CCC(=C(c2ccc(F)cc2)c2ccc(F)cc2)CC1
2. CCCCN1CCC(COC(=O)c2cc(Cl)c(N)c3c2OCCO3)CC1
3. NS(=O)(=O)c1cccc2c1c([N+](=O)[O-])cc1nc(O)c(O)nc12

0.985 (inactive)
0.989 (inactive)
1.01 (inactive)

I'm hoping you can list normalized growth for every molecule here, please.
1. CCn1cnc2c(Nc3cccc(Cl)c3)nc(N[C@@H]3CCCC[C@@H]3N)nc21
2. O=c1ccn([C@@H]2O[C@H](COP(=O)(O)OP(=O)(O)O)[C@@H](O)[C@H]2O)c(=O)[nH]1
3. CC(N)=O

["0.991 (inactive)", "0.992 (inactive)", "1 (inactive)"]
